# TARGET SYSTEM: recombinant homotrimeric HA, A/Wisconsin/67/05 H3N2 (Influenza A virus A/Wisconsin/67/05 (H3N2))
# ASSAY NAME: trimeric HA microarray, transfection set 5
# CONDITION SUMMARY: remark: other sources report otherwise
A collection of binders and their measured Trimeric HA Binding RLU
Answer format reminder: number followed by unit.

Answered cases to consult:
[[record]]
binder = "TCN-539 (5056_A08) (antibody, V domains shown) VH: QVQLVESGGGVVQPGRSLRLSCAASEITFITYAMHWVRQAPGKGLEWVALISDDGSNKFYADSVKGRFTISRDNSKNTLYLQMNSLRAEDTAAYYCAREGVYFDSGTYRGYFDYWGQETLVTVSS VL: EIVLTQSPATLSLSPGERATLSCRASQSVSSYLAWYQQKPGQAPRLLIYDASNRATGIPARFSGSGSGTDFTLTISSLEPEDFAVYYCQQRSHWPPITFGQGTRLEIK"
result = "58800 RLU"

[[record]]
binder = "TCN-547 (5092_F11) (antibody, V domains shown) VH: QVQLQESGPGLVKPSQTLSLTCTVSGDSISSVDHYWSWIRQHPVKGLEWIGFMYYSASTYYNPSLKSRVTISTDTSKNQFSLRLSSVTAADTAVYYCARGTCAGDCSLHYYYYGLDVWGQGRTVTVSS VL: DIQMTQSPSSLSASVGDRVTITCRASQSISSYLNWYQHKPGKAPKVLMYAVSILQSGVPSRFSGSGSGADFTLTISSLQPEDFATYYCQQSYSSPLTFGGGTKVEIK"
result = "6970 RLU"


Could you now look at the following binder, please?
Complete the entry with Trimeric HA Binding RLU for TCN-551 (5243_D01) (antibody, V domains shown) VH: EVQLVQSGSEVKKPGESLKISCKGSGYSFSNYWIGWVRHMPGKGLEWMGIIYPGDSDTRYSPSFQGQVTMSADKSSSTVYLQWSSLKASDTAIYYCARRGGHSFGYGSGGDTHSEFDSWGQGTLVTVSS VL: QSVLTQSPSVSAAPGQKVTISCSGSDSNIGDYFVCWYQHLPGKPPQLLIYENNKRPSGIPDRFSGSKSGTSATLGITGIQTGDEADYYCATWDGSLSAWVFGGGTKLTVL
936 RLU
